- assayed target: T1, MPDZ_10, O75970
- T1 sequence (O75970 1624-1722, limits assumed, looked up): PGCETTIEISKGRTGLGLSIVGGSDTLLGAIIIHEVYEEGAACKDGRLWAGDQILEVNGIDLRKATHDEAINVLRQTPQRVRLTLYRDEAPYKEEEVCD
- assay notes: holdup assay
- Parameters: key: below the threshold = too weak to quantify, mostly under pKd 3.1 to 4
- setup conditions: plain residues with an end cap or a label only (N-terminal biotin on a linker: ttds)
recorded endpoint: pKd

// solved cases for pKd follow
binder: FVETQHQTQV [FAT3, Q8TDW7]
pKd: below the threshold
--
binder: SRSRRRETAL [HPV33-E6, P06427]
pKd: below the threshold
--
binder: NPDALPETLV [ARHGAP6, O43182]
pKd: below the threshold
--
binder: GARVSKETPL [MAPK12, P53778]
pKd: below the threshold
--
binder: DLDEEEDTHL [PODXL, O00592]
pKd: below the threshold

Request: Reported pKd, binder KLVIKTETTV [RASSF6, Q6ZTQ3] : ____
Result: below the threshold

Request: Same question, SGGKRKETLV [NET1, Q7Z628] this time
Result: below the threshold

Request: And for PSRDRKETSI [RALBP1, Q15311] ?
Result: below the threshold

Request: Would you kindly repeat that for SSIDLWETAL [SLC15A5, A6NIM6] ?
Result: below the threshold
